assaySummary: Blood concentration over time and pharmacokinetic analysis after single subcutaneous administration (LC/MSMS)
Type: in vivo, female SD rats
testSettings: female, SD, rat, blood, sc, 12.5 mg/kg, rats, 12.5 mg/kg s.c. once; read-out: AUCt (systemic exposure to drug) (converted)
Description: The present inventor carried out animal experiments (female SD rats, nine weeks old) in order to examine the increased in vivo half-lives of the prepared fatty acid-conjugated GnRH derivatives. […] Before administration and at 0.5, 1, 2, and 6 hours and on days 1, 3, 7, 10, 14, 21, and 28 after administration, blood samples were taken from the tail vein of the rats and measured for the blood concentrations of Leuprolide and the derivatives of the Examples, using LC/MSMS. […]
Square brackets hold non-standard residues; d marks the D form. Peptide text beside a SMILES is read from it. * marks the point of attachment. Palmitoyl = CCCCCCCCCCCCCCCC(=O)*
attributeMeasured: AUC(0-t) (ng·h/mL)

INSERT INTO results (molecule, measurementunit, result) VALUES
  ('CCCCCCCCCCCCCCCC(=O)N[C@@H](CCC(N)=O)C(=O)N[C@@H](Cc1c[nH]cn1)C(=O)N[C@@H](Cc1c[nH]c2ccccc12)C(=O)N[C@@H](CO)C(=O)N[C@@H](Cc1ccc(O)cc1)C(=O)N[C@H](CC(C)C)C(=O)N[C@@H](CC(C)C)C(=O)N[C@@H](CCCNC(=N)N)C(=O)N1CCC[C@H]1C(=O)NCC [Example 4] (Palmitoyl-QHWSY[dL]LRP-NHEt)', 'ng·h/mL', 5190);

====

assaySummary: Blood concentration over time and pharmacokinetic analysis after single subcutaneous administration (LC/MSMS)
Assay type: in vivo, female SD rats
testSettings: female, SD, rat, blood, sc, 12.5 mg/kg, rats, 12.5 mg/kg s.c. once; read-out: Cmax (maximum concentration)
Square brackets hold non-standard residues; d marks the D form. Peptide text beside a SMILES is read from it. * marks the point of attachment. Palmitoyl = CCCCCCCCCCCCCCCC(=O)*
attributeMeasured: Cmax (ng/mL)

INSERT INTO assay_data (compound, result) VALUES
  ('CCCCCCCCCCCCCCCC(=O)N[C@@H](CCC(N)=O)C(=O)N[C@@H](Cc1c[nH]cn1)C(=O)N[C@@H](Cc1c[nH]c2ccccc12)C(=O)N[C@@H](CO)C(=O)N[C@@H](Cc1ccc(O)cc1)C(=O)N[C@H](CC(C)C)C(=O)N[C@@H](CC(C)C)C(=O)N[C@@H](CCCNC(=N)N)C(=O)N1CCC[C@H]1C(=O)NCC [Example 4] (Palmitoyl-QHWSY[dL]LRP-NHEt)', 52.2);
